molecular target: GCase (Homo sapiens, UniProt P04062); construct: endogenous in cells; host or cells: HeLa cells; test: activation of GCase in a live cell PFB assay in HELA cells; format: cell-based; conditions: EC50 given as range classes
parameter_measured: EC50

COc1ccccc1C(=O)N1CC2(CCN(c3cnc4cnn(CC(F)F)c4n3)C2)C1 : < 10 µM
Cc1ncc(N2CCC3(CCN(c4cnc5c(C)nn(CC(F)F)c5n4)CC3)C2)c(C(F)(F)F)n1 : 10 to 50 µM
O=C(c1cc(Cl)cc(Cl)n1)N1CC2(CCN(c3cnc4cnn(CC(F)F)c4n3)C2)C1 : 10 to 50 µM
O=C(c1ccccc1OC(F)(F)F)N1CC2(CCN(c3cnc4cnn(CC(F)F)c4n3)C2)C1 : < 10 µM
Cc1cccc(S(=O)(=O)N2CC3(CCN(c4cnc5cnn(CC(F)F)c5n4)C3)C2)c1 : < 10 µM
FC(F)Cn1ncc2ncc(N3CCC4(CCCN(c5cncc(C(F)(F)F)c5)C4)CC3)nc21 : < 10 µM
O=C1CC2(CCN(c3cnc4cnn(CC(F)F)c4n3)C2)CCN1c1ccc(C(F)(F)F)cn1 (stereo not shown) : 50 to 100 µM
Cc1ncc(N2CC3(CCN(c4ncc5cnn(C6COC6)c5n4)C3)C2)c(C(F)(F)F)n1 : 10 to 50 µM

Prompt: Give the reported EC50 for this compound. O=C1CC2(CCN(c3cnc4cnn(CC(F)F)c4n3)C2)CCN1c1ccc(C(F)(F)F)nc1 (stereo not shown)
Response: 10 to 50 µM

Prompt: Give the reported EC50 for this compound. O=C1CC2(CCN(c3cnc4cnn(CC(F)F)c4n3)C2)CCN1c1cc(C(F)(F)F)ccn1 (stereo not shown)
Response: 10 to 50 µM

Prompt: Give the reported EC50 for this compound. COc1nc(C(F)(F)F)ncc1N1CCC2(CCN(c3cnc4cnn(CC(F)F)c4n3)CC2)C1
Response: < 10 µM

Prompt: Give the reported EC50 for this compound. Cc1nc(N2CC3(CCN(c4cnc5c(C)nn(CC(F)(F)F)c5n4)CC3)C2)cc(C(F)(F)F)n1
Response: < 10 µM

Prompt: Give the reported EC50 for this compound. Cc1nn(C2COC2)c2nc(N3CCC4(CN(c5ccnc(C(F)(F)F)c5)C4)C3=O)cnc12
Response: < 10 µM

Prompt: Give the reported EC50 for this compound. FC(F)Cn1ncc2ncc(N3CCCC4(CCN(c5ccc(C(F)(F)F)cn5)CC4)C3)nc21
Response: 10 to 50 µM

Prompt: Give the reported EC50 for this compound. Cc1ccccc1S(=O)(=O)N1CC2(CCN(c3cnc4cnn(CC(F)F)c4n3)C2)C1
Response: 10 to 50 µM

Prompt: Give the reported EC50 for this compound. CC1(C)N(c2ccc(C(F)(F)F)nc2)C(=O)CC12CCN(c1cnc3cnn(CC(F)F)c3n1)CC2
Response: 10 to 50 µM

* * *

Here the recorded EC50 is given for each entry.
biological target: GCase (Homo sapiens); construct: endogenous in cells; host or cells: HeLa cells; test: activation of GCase in a live cell PFB assay in HELA cells; assay type: cell-based; details: activation of GCase, EC50 ranges

FC(F)Cn1ncc2ncc(N3CCC4(CC3)CC(COc3cc(C(F)(F)F)ccn3)C4)nc21 : 10 to 50 µM
Cc1nc(C(F)(F)F)ncc1N1CC2(CCN(c3cnc4cnn([C@@H]5CCOC5)c4n3)C2)C1 : 10 to 50 µM

Prompt: Give the reported EC50 for this molecule. Cc1nc(N2CC3(CCN(c4ncc5cnn(CC(F)F)c5n4)CC3)C2)cc(C(F)(F)F)n1
Response: < 10 µM

Prompt: Give the reported EC50 for this molecule. O=C1CC2(CCN(c3cnc4cnn(CC(F)F)c4n3)C2)CN1c1ccc(C(F)(F)F)nc1 (stereo not shown)
Response: 10 to 50 µM

Prompt: Give the reported EC50 for this molecule. O=C1CC2(CCN(c3cnc4cnn(CC(F)F)c4n3)CC2)CN1c1nccc(C(F)(F)F)n1
Response: < 10 µM

Prompt: Give the reported EC50 for this molecule. COCCOc1cccc(N2CCC3(CCN(c4cnc5cnn(CC(F)F)c5n4)CC3)C2=O)n1
Response: 10 to 50 µM

Prompt: Give the reported EC50 for this molecule. O=C1N(c2cc(C(F)(F)F)ccn2)CCC12CCN(c1cnc3cnn(CC(F)(F)F)c3n1)CC2
Response: < 10 µM

Prompt: Give the reported EC50 for this molecule. Cc1cc(N2CC3(CCN(c4cnc5c(C)nn(C6COC6)c5n4)C3)C2)nc(C)n1
Response: 10 to 50 µM

Prompt: Give the reported EC50 for this molecule. FC(F)Cn1ncc2ncc(N3CCC4(CC3)CCN(c3cnc(C(F)(F)F)cc3Cl)C4)nc21
Response: > 100 µM

Prompt: Give the reported EC50 for this molecule. Cc1cc(N2CC3(CCN(c4ncc5cnn(CC(C)(F)F)c5n4)C3)C2)nc(C(F)(F)F)n1
Response: 10 to 50 µM

Prompt: Give the reported EC50 for this molecule. Cc1nn(C2COC2)c2nc(N3CCC4(CCN(c5cnc(C(F)(F)F)nc5)C4)C3)cnc12 (stereo not shown)
Response: < 10 µM

Prompt: Give the reported EC50 for this molecule. O=C1C[C@]2(CC3CCC2CN3c2cnc3cnn(CC(F)F)c3n2)CN1c1ccc(C(F)(F)F)cn1 (stereo partly shown)
Response: 10 to 50 µM

Prompt: Give the reported EC50 for this molecule. CCc1nn(C2COC2)c2nc(N3CCC4(CN(c5cc(C(F)(F)F)nc(C)n5)C4)C3)ncc12
Response: < 10 µM

Prompt: Give the reported EC50 for this molecule. CCN1C(=O)N(c2ccnc(C(F)(F)F)c2)C(=O)C12CCN(c1cnc3cnn(CC(F)F)c3n1)CC2
Response: < 10 µM

Prompt: Give the reported EC50 for this molecule. Cc1nc(N2CC3(CCN(c4cnc5c(C)nn(CC(F)F)c5n4)C3)C2)cc(C(F)(F)F)n1
Response: < 10 µM

Prompt: Give the reported EC50 for this molecule. O=C1CC2(CCN(c3cnc4cnn(CC(F)F)c4n3)CC2)CN1c1ccc(C(F)(F)F)nc1
Response: 10 to 50 µM

* * *

Target: GCase (Homo sapiens, UniProt P04062)
Construct: endogenous in cells; host or cells: HeLa cells
Sequence (P04062 40-536): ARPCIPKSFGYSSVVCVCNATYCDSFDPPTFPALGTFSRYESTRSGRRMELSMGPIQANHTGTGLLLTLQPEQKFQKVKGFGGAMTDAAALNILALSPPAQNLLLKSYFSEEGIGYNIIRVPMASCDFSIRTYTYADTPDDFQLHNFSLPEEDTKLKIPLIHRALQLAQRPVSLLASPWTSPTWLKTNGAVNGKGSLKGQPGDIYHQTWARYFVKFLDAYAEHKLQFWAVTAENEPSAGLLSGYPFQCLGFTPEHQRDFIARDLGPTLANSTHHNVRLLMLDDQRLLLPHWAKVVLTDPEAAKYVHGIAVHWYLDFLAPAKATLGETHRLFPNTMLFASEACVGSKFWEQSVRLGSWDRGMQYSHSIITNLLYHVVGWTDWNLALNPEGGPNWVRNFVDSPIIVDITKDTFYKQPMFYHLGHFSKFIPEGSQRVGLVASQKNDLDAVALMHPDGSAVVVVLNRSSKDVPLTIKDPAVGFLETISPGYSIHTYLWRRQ
Experiment: activation of GCase in a live cell PFB assay in HELA cells
Type: cell-based
Conditions: activation of GCase, EC50 ranges
pEC50: −log10 of the molar value.
parameter_measured: pEC50

// below: answered molecules
Cc1nn(C2COC2)c2nc(N3CCC4(CCN(c5ccc(C(F)(F)F)nc5)C4)CC3)cnc12 : > 5.00
O=C1N(c2ccc(C(F)(F)F)nc2)C(=O)C2(CCN(c3cnc4cnn(CC(F)F)c4n3)CC2)N1CC(F)F : 4.30 to 5.00
FC(F)Cn1ncc2ncc(N3CC[C@@]4(CCN(c5cnc(C(F)(F)F)nc5)C4)C3)nc21 : 4.30 to 5.00

Could you now look at the following molecule, please?
Prompt: Give the reported pEC50 for this molecule. Cn1c(N2CCC3(CCN(c4ncc(C(F)(F)F)cn4)C3)CC2)nc2c(cnn2C2COC2)c1=O
Response: 4.30 to 5.00

* * *

target: GCase (Homo sapiens, UniProt P04062); construct: endogenous in cells; host or cells: HeLa cells; experiment: activation of GCase in a live cell PFB assay in HELA cells; assay type: cell-based; conditions: EC50 given as range classes
pEC50: −log10 of the molar value.
parameter_measured: pEC50

// below: answered molecules
Cc1nc(N2CC3(CCN(c4cc5c(cn4)cnn5CC(F)F)C3)C2)cc(C(F)(F)F)n1 [Cmpd 631] : 4.30 to 5.00
FC(F)Cn1ncc2ncc(NC3CCC4(C3)CN(c3cc(C(F)(F)F)ccn3)C4)nc21 (stereo not shown) [Compound 190] : > 5.00
O=S(=O)(c1ccc(C(F)(F)F)nc1)N1CC2(CCN(c3cnc4cnn(CC(F)F)c4n3)C2)C1 [Cmpd 414] : 4.30 to 5.00

Prompt: Provide measured pEC50 on GCase (Homo sapiens, UniProt P04062) for FC(F)(F)c1cc(N2CC3(CCN(c4cncc(-c5ncc(C(F)(F)F)s5)n4)C3)C2)ccn1 [Cmpd 1028] please.
Response: 4.30 to 5.00

Prompt: Provide measured pEC50 on GCase (Homo sapiens, UniProt P04062) for CCn1c(N2CCC3(CC2)CC(=O)N(c2ccnc(C(F)(F)F)c2)C3)nc2c(cnn2CC(F)F)c1=O [Cmpd 1019] please.
Response: > 5.00

Prompt: Provide measured pEC50 on GCase (Homo sapiens, UniProt P04062) for FC(F)Cn1ncc2ncc(N3CCC4(CCCN(c5cc(C(F)(F)F)ccn5)C4)CC3)nc21 [Cmpd 224] please.
Response: 4.30 to 5.00

// data source = patent US20250034170A1
